System: Vibrio cholerae
TEST DESCRIPTION: growth AUC normalised to DMSO control (fraction of control); higher = less growth inhibition, active = hit call of the paper
PARTICULARS: 20 µM
Where a name gives a salt, the structure may show the parent alone.
Field 'call' accepts true for active, false for inactive

Examples from the recorded data:
>>> label("Fc1ccc(C(c2ccc(F)cc2)N2CCN(C/C=C/c3ccccc3)CC2)cc1 [Flunarizine dihydrochloride]")
"false"
>>> label("N=C(N)NCC1COC2(CCCCC2)O1 (centres undefined) [Guanadrel sulfate]")
"false"
>>> label("C#C[C@]1(O)CC[C@H]2[C@@H]3CCc4cc(O)ccc4[C@H]3CC[C@@]21C")
"false"
>>> label("CCCCN(CCCC)CCCOC(=O)c1ccc(N)cc1")
"false"
>>> label("Cc1ccc2c(c1)c1c3n2CCNC3CCC1 (centres undefined) [Pirlindole mesylate]")
"false"

I'd appreciate the recorded outcome for OCCN1C[C@H](O)[C@@H](O)[C@H](O)[C@H]1CO from this test.
false

I'd appreciate the recorded outcome for CN1CCN(CCCN2c3ccccc3Sc3ccc(C(F)(F)F)cc32)CC1 [Trifluoperazine dihydrochloride] from this test.
false

I'd appreciate the recorded outcome for CNC(=C[N+](=O)[O-])NCCSCc1ccc(CN(C)C)o1 [Ranitidine hydrochloride] from this test.
false

---

Test system: P. vulgatus WT;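 also: active when median AUC fell below 0.1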
TEST DESCRIPTION: growth AUC normalised to DMSO control (median) (fraction of control); higher = less growth inhibition, active = hit call of the paper
PARTICULARS: 20 µM
Where a name gives a salt, the structure may show the parent alone.
Field 'call' accepts active, inactive

>>> label("Cc1cc(NS(=O)(=O)c2ccc(N)cc2)no1 [Sulfamethoxazole]")
"inactive"
>>> label("Cc1cn([C@H]2C=C[C@@H](CO)O2)c(=O)[nH]c1=O [Stavudine]")
"inactive"
>>> label("CCN1CCN(Cc2ccc(Nc3ncc(F)c(-c4cc(F)c5nc(C)n(C(C)C)c5c4)n3)nc2)CC1 [Abemaciclib]")
"inactive"
>>> label("CCC(=O)OCC(=O)[C@@]1(OC(=O)CC)[C@@H](C)C[C@H]2[C@@H]3CCC4=CC(=O)C=C[C@]4(C)[C@@]3(Cl)[C@@H](O)C[C@@]21C [Beclomethasone dipropionate]")
"inactive"
>>> label("CN(C)CCN(Cc1cccs1)c1ccccn1 [Methapyrilene hydrochloride]")
"inactive"
>>> label("CCOCCn1c(N2CCCN(C)CC2)nc2ccccc21 [Emedastine difumarate]")
"inactive"
>>> label("CC(=O)OCC(=O)[C@@]12N=C(C)O[C@@H]1C[C@H]1[C@@H]3CCC4=CC(=O)C=C[C@]4(C)[C@H]3[C@@H](O)C[C@@]12C [Deflazacort]")
"inactive"
>>> label("COc1c(N2CCNC(C)C2)c(F)cc2c(=O)c(C(=O)O)cn(C3CC3)c12 (centres undefined) [Gatifloxacin]")
"active"

I'd appreciate the recorded outcome for COc1c(O[C@@H]2O[C@H](CO)[C@@H](O)[C@H](O)[C@H]2O)cc2c(c1OC)-c1ccc(SC)c(=O)cc1[C@@H](NC(C)=O)CC2 [Thiocolchicoside] from this test.
inactive

I'd appreciate the recorded outcome for CC(=O)Oc1cc2c(s1)CCN(C(C(=O)C1CC1)c1ccccc1F)C2 (centres undefined) [Prasugrel] from this test.
inactive

I'd appreciate the recorded outcome for COc1cccc(N(C)C(=S)Oc2ccc3c(c2)CCCC3)n1 [Liranaftate] from this test.
inactive

I'd appreciate the recorded outcome for CS(=O)(=O)Nc1ccc([N+](=O)[O-])cc1Oc1ccccc1 [Nimesulide] from this test.
inactive
